assay: Solubility of ceramide 3 derivatives in emollients (visual inspection, maximum concentration before cloudiness); type: physicochemical; details: emersol (isostearic acid), organic solvent or mixture
Reported property: solubility (µg/mL)

(A) CCCCCCCCCCCCCCCCCC(=O)N[C@@H](CO)[C@H](O)[C@H](O)CCCCCCCCCCCCCC [Ceramide III, N-stearoylphytosphingosine, reference compound]
(B) CCCCCCCC/C=C\CCCCCCCC(=O)N[C@@H](CO)[C@H](O)[C@H](O)CCCCCCCCCCCCCC [Ceramide IIIB, N-oleoylphytosphingosine]
## Task Looking at A and B , which one comes out lower in solubility terms? Pick one; state its label.
## Result A
(A: 600 µg/mL, B: 8000 µg/mL)

###

test: Solubility of ceramide 3 derivatives in emollients (visual inspection, maximum concentration before cloudiness); assay type: physicochemical; details: myritol 318 (triglycerides), organic solvent or mixture
Reported property: solubility (µg/mL)

(P) CCCCCCCCCCCCCCCCCC(=O)N[C@@H](CO)[C@H](O)[C@H](O)CCCCCCCCCCCCCC [Ceramide III, N-stearoylphytosphingosine, reference compound]
(Q) CCCCCCCC/C=C\CCCCCCCC(=O)N[C@@H](CO)[C@H](O)[C@H](O)CCCCCCCCCCCCCC [Ceramide IIIB, N-oleoylphytosphingosine]
## Task Between P and Q , which one shows the larger solubility value? Pick one; state its label.
## Result Q

###

experiment: Solubility of ceramide 3 derivatives in emollients (visual inspection, maximum concentration before cloudiness); type: physicochemical; settings: avocado oil, organic solvent or mixture
Reported property: solubility (µg/mL)
Just the number please, in µg/mL, no unit attached.

## Task GET /values?readout=solubility&item= CCCCCCCCCCCCCCCCCC(=O)N[C@@H](CO)[C@H](O)[C@H](O)CCCCCCCCCCCCCC [Ceramide III, N-stearoylphytosphingosine, reference compound]
## Result 50

###

assay: Solubility of ceramide 3 derivatives in emollients (visual inspection, maximum concentration before cloudiness); assay type: physicochemical; settings: eutanol g16 (isocetyl alcohol), organic solvent or mixture
Reported property: solubility (µg/mL)

(I) CCCCCCCC/C=C\CCCCCCCC(=O)N[C@@H](CO)[C@H](O)[C@H](O)CCCCCCCCCCCCCC [Ceramide IIIB, N-oleoylphytosphingosine]
(II) CCCCCCCCCCCCCCCCCC(=O)N[C@@H](CO)[C@H](O)[C@H](O)CCCCCCCCCCCCCC [Ceramide III, N-stearoylphytosphingosine, reference compound]
## Task Between I and II , which one shows the larger solubility value? Pick one; state its label.
## Result I
(I: 12000 µg/mL, II: 1600 µg/mL)
